assay: COS7 lysate on small-molecule microarray, probe aHis, 635 nm (AID 1123); details: COS7 cell lysate, fluorescence, higher = more signal;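 note: z-score combines 667nm fluorescence intensity with signal-to-noise per printed compound spot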
Assign true whenever composite z-score does not fall below 0.3; assign false whenever it does.

Examples from the recorded data:
molecule	cat
CO[C@H]1COC(=O)[C@H](C)NC(=O)CC=C[C@@H](C)[C@H](OC)COC(=O)CC=C[C@@H]1C	false
CC(C)=NOCc1ccc(-c2cn([C@@H]3COC[C@H]3O)nn2)cc1	true

Lookup: composite z-score >= 0.3 for `C[C@@H]1CC[C@@H](C(=O)O)N[C@H]1c1ccc(-c2ccco2)cc1` ?
Found: false

Lookup: What do you have for `CCN1C(=O)[C@H]2[C@H]3[C@H](O)[C@H](O)CC(=NNC(=O)OCc4ccc(OC)cc4)[C@H]3CC[C@H]2C1=O` ?
Found: false

Lookup: What do you have for `CCN1C(=O)[C@H]2[C@H]3[C@H](O)[C@H](O)CC(=NOC)[C@@H]3CC[C@H]2C1=O` ?
Found: false

Lookup: What do you have for COC(=O)[C@H](C)NC(=O)CCC1CC(OC(=O)NCCc2ccc(F)cc2)CC2(CCCC(COC(=O)NCCCN3CCCC3=O)O2)O1 (stereo partly specified) ?
Found: false

Lookup: What do you have for `CO[C@H]1COC(=O)CC=C[C@@H](C)COC(=O)[C@@H](OCc2ccccc2)C=C[C@@H]1C` ?
Found: false

Lookup: What do you have for `C[C@@H](c1ccccc1)N1C(=O)[C@H]2[C@H]3[C@H](O)[C@H](O)CC(=O)[C@@H]3CC[C@H]2C1=O` ?
Found: true

Lookup: What do you have for `COc1ccc(COC(=O)NN=C2C[C@@H](O)[C@@H](O)[C@@H]3[C@@H]4C(=O)N(C(C)(C)C)C(=O)[C@@H]4CC[C@H]23)cc1` ?
Found: true
